# measured-target: Cytochrome P450 2C9 (Homo sapiens)
# Sequence (P11712 whole entry): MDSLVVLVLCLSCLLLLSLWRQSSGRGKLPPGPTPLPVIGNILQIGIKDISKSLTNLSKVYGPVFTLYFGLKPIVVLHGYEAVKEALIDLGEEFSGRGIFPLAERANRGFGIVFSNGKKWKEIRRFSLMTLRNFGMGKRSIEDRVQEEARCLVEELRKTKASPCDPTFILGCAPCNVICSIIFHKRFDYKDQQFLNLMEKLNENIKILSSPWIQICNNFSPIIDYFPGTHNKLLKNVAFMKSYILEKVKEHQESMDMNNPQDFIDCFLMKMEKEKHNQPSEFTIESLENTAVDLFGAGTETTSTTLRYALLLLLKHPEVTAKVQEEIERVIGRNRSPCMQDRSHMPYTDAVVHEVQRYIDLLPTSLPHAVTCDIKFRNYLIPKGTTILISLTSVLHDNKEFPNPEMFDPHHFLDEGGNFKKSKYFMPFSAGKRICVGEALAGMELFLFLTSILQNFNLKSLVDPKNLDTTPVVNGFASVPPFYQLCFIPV
# assay-details: Inhibition of CYP2C9
# Type: ADME
experimental-readout: Activity

Here is how some molecules turned out for Activity.
record-smiles	Activity
CCCS(=O)(=O)N1CCC(CNC(=O)c2cc(F)c(Cl)cc2Cl)(C(=O)N2CCOCC2)CC1	Not Active
CCCS(=O)(=O)N1CCC(CNC(=O)c2ccc(Cl)cc2Cl)(C(=O)N2CCOCC2)CC1	Not Active
CCCS(=O)(=O)N1CCC(CNC(=O)c2ccccc2OC(F)(F)F)(C(=O)N2CCOCC2)CC1	Not Active
CCCS(=O)(=O)N1CCC(CNC(=O)c2c(F)cccc2F)(C(=O)N2CCOCC2)CC1	Not Active
CCCS(=O)(=O)N1CCC(CNC(=O)c2ccc(C(F)(F)F)cc2F)(C(=O)N2CCOCC2)CC1	Not Active
CCCS(=O)(=O)N1CCC(CNC(=O)c2c(F)ccc(Cl)c2F)(C(=O)N2CCOCC2)CC1	Not Active
CCCS(=O)(=O)N1CCC(CNC(=O)c2ccccc2Cl)(C(=O)N2CCOCC2)CC1	Not Active

Now consider a different molecule.
# get_value(readout='Activity', item= `CCCS(=O)(=O)N1CCC(CNC(=O)CC)(C(=O)N2CCOCC2)CC1` ) Not Active

###

# assay-details: Apparent permeability in Caco-2 cells
# Type: ADME, cell-based
# assay-context: human
Field: Papp. Provide a value for each of the compounds that follow.

Below are worked cases with known answers.
record-smiles	Papp
CCCS(=O)(=O)N1CCC(CNC(=O)c2ccc(F)cc2C(F)(F)F)(C(=O)N2CCOCC2)CC1	> 22 ×10⁻⁶ cm/s
CCCS(=O)(=O)N1CCC(CNC(=O)C2CC2)(C(=O)N2CCOCC2)CC1	> 22 ×10⁻⁶ cm/s
CCCS(=O)(=O)N1CCC(CNC(=O)c2ccc(Cl)cc2Cl)(C(=O)N2CCOCC2)CC1	23.6 ×10⁻⁶ cm/s

Attention now shifts to the item below.
Look at this compound and give its reported Papp. `CCCS(=O)(=O)N1CCC(CNC(=O)c2ccccc2OC(F)(F)F)(C(=O)N2CCOCC2)CC1` > 22 ×10⁻⁶ cm/s

###

# measured-target: Sodium- and chloride-dependent glycine transporter 1 (Mus musculus, UniProt P28571)
# Sequence (P28571 whole entry): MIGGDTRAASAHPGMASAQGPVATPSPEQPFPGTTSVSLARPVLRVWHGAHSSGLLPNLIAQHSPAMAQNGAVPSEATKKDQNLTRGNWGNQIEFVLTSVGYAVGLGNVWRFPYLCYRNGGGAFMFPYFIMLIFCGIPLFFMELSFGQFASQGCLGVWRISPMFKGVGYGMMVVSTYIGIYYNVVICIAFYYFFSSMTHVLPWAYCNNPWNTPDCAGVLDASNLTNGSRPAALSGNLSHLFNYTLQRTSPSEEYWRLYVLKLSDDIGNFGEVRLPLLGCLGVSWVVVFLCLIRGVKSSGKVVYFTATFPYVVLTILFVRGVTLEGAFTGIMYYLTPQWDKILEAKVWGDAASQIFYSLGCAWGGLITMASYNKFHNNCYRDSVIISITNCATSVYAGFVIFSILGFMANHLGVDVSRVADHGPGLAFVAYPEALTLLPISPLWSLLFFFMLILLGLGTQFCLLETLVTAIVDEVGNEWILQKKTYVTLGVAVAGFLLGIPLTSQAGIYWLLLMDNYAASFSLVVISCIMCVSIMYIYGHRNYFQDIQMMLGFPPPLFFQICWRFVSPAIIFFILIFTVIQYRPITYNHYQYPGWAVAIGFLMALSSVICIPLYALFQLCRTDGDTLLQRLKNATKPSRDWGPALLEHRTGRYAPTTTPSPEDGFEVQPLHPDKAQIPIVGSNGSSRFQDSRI
Field: IC50. Provide a value for each of the compounds that follow.
Give bare numbers, in nM.

record-smiles	IC50 (nM)
CCCS(=O)(=O)N1CCC(CNC(=O)c2c(F)ccc(Cl)c2F)(C(=O)N2CCOCC2)CC1	42.8
CCCS(=O)(=O)N1CCC(CNC(=O)c2cc(F)c(Cl)cc2Cl)(C(=O)N2CCOCC2)CC1	19.4

Proceeding to the next compound to report its IC50.
I am curious: what IC50 value has been reported for `CCCS(=O)(=O)N1CCC(CNC(=O)c2ccc(F)cc2Cl)(C(=O)N2CCOCC2)CC1` ? 28.5

###

# assay-details: Aqueous solubility of the compound
# Format: physicochemical
experimental-readout: solubility (µg/mL)
Numbers only, in µg/mL.

record-smiles	solubility, µg/mL
CCCS(=O)(=O)N1CCC(CNC(=O)c2ccc(Cl)cc2Cl)(C(=O)N2CCOCC2)CC1	18000
CCCS(=O)(=O)N1CCC(CNC(=O)c2ccccc2)(C(=O)N2CCOCC2)CC1	10000
CCCS(=O)(=O)N1CCC(CNC(=O)C2CC2)(C(=O)N2CCOCC2)CC1	10000
CCCS(=O)(=O)N1CCC(CNC(=O)CC)(C(=O)N2CCOCC2)CC1	10000
CCCS(=O)(=O)N1CCC(CNC(=O)c2ccc(C(F)(F)F)cc2F)(C(=O)N2CCOCC2)CC1	10000
CCCS(=O)(=O)N1CCC(CNC(=O)c2ccccc2OC(F)(F)F)(C(=O)N2CCOCC2)CC1	10000
CCCS(=O)(=O)N1CCC(CNC(=O)c2c(F)ccc(Cl)c2F)(C(=O)N2CCOCC2)CC1	10000
CCCS(=O)(=O)N1CCC(CNC(=O)c2c(F)cccc2Cl)(C(=O)N2CCOCC2)CC1	10000

Next:
Param item = `CCCS(=O)(=O)N1CCC(CNC(=O)c2ccc(F)cc2Cl)(C(=O)N2CCOCC2)CC1` ; retrieve measured solubility. 10000

###

Measured pIC50 on Sodium- and chloride-dependent glycine transporter 1 (Homo sapiens) follows.
Sequence (P48067 whole entry): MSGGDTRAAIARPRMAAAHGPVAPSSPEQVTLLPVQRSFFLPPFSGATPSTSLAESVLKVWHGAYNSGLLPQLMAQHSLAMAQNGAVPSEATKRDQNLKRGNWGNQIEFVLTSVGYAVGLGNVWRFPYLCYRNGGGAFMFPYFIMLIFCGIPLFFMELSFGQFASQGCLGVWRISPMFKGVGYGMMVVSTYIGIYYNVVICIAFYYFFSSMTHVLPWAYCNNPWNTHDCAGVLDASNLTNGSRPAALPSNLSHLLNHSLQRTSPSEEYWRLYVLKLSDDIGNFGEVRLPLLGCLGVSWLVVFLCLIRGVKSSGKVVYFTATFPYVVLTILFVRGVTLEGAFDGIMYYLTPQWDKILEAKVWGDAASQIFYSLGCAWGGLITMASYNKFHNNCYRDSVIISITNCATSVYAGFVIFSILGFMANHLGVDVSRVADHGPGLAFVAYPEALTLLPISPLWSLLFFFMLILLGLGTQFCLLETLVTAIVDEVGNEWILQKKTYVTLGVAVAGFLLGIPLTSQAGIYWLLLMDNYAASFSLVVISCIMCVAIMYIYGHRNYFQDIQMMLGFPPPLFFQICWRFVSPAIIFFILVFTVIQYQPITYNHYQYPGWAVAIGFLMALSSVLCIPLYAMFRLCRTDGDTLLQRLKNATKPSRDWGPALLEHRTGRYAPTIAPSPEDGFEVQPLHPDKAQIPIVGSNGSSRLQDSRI
Give bare numbers, as −log10 of the molar value.

record-smiles	pIC50
CCCS(=O)(=O)N1CCC(CNC(=O)c2ccc(Cl)cc2Cl)(C(=O)N2CC(N)C2)CC1	6.96

We next turn to a different compound, shown below.
Please look up its pIC50: `CCCS(=O)(=O)N1CCC(CNC(=O)c2ccccc2OC(F)(F)F)(C(=O)N2CCOCC2)CC1` 7.05

###

# Test system: Caco-2
# assay-details: Ratio of permeability from basolateral to apical over apical to basolateral side of Caco-2 cell expressing mouse p-glycoprotein
# Type: ADME, cell-based
# assay-context: human
experimental-readout: Ratio
Numbers only.

# count of solved cases: 4
record-smiles	quantitative-result
CCCS(=O)(=O)N1CCC(CNC(=O)c2ccc(F)cc2Cl)(C(=O)N2CCOCC2)CC1	8.9
CCCS(=O)(=O)N1CCC(CNC(=O)c2cc(F)c(Cl)cc2Cl)(C(=O)N2CCOCC2)CC1	8.9
CCCS(=O)(=O)N1CCC(CNC(=O)CC)(C(=O)N2CCOCC2)CC1	8.9
CCCS(=O)(=O)N1CCC(CNC(=O)c2c(F)ccc(Cl)c2F)(C(=O)N2CCOCC2)CC1	8.9

Give measured Ratio for every item shown.
1. CCCS(=O)(=O)N1CCC(CNC(=O)c2c(F)cccc2Cl)(C(=O)N2CCOCC2)CC1
2. CCCS(=O)(=O)N1CCC(CNC(=O)c2ccc(F)cc2C(F)(F)F)(C(=O)N2CCOCC2)CC1
3. CCCS(=O)(=O)N1CCC(CNC(=O)c2c(F)cccc2F)(C(=O)N2CCOCC2)CC1
4. CCCS(=O)(=O)N1CCC(CNC(=O)c2ccc(Cl)cc2Cl)(C(=O)N2CCOCC2)CC1

[8.9, 8.9, 8.9, 11.4]

###

# assay-details: Partition coefficient, log P of the compound
# Assay type: physicochemical
# assay-context: octanol/water
experimental-readout: logP

record-smiles	logP
CCCS(=O)(=O)N1CCC(CNC(=O)c2c(F)cccc2F)(C(=O)N2CCOCC2)CC1	< 1.4
CCCS(=O)(=O)N1CCC(CNC(=O)c2ccc(F)cc2C(F)(F)F)(C(=O)N2CCOCC2)CC1	< 1.4

Below: the item to evaluate.
// returns reported logP for input `CCCS(=O)(=O)N1CCC(CNC(=O)c2ccc(F)cc2Cl)(C(=O)N2CCOCC2)CC1` < 1.4

###

Task for the reader: assign each of the following compounds its reported pIC50.
# measured-target: Sodium- and chloride-dependent glycine transporter 1 (Rattus norvegicus, UniProt P28572)
# Sequence (P28572 whole entry): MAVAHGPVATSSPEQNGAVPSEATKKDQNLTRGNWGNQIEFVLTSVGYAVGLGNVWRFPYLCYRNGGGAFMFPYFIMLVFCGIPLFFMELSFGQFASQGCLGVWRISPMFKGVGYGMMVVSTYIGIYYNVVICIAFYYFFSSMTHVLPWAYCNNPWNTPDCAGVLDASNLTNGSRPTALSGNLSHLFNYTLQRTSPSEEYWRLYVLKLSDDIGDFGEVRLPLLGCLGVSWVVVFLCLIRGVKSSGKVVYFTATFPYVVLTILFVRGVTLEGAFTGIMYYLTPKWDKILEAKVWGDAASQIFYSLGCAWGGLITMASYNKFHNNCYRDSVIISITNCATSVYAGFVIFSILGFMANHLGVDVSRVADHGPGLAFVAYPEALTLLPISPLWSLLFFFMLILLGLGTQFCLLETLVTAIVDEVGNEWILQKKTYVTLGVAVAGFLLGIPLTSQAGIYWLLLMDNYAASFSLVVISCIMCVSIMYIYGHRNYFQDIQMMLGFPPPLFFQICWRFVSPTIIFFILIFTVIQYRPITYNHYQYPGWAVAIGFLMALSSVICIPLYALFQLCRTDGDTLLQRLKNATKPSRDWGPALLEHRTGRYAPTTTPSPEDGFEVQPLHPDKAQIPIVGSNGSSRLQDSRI
Numbers only, as −log10 of the molar value.

record-smiles	pIC50
CCCS(=O)(=O)N1CCC(CNC(=O)c2cc(F)c(Cl)cc2Cl)(C(=O)N2CCOCC2)CC1	8.13

# next compound below
Entry `CCCS(=O)(=O)N1CCC(CNC(=O)c2ccc(Cl)cc2Cl)(C(=O)N2CCOCC2)CC1` has what pIC50? 8.49
